EXPERIMENT: log P determination by HPLC on reversed-phase column (C 18), EEC Directive 79/831 V.A8
Format: physicochemical
REPORTED_CONDITIONS: labelled a): acidic range, 0.1% aqueous phosphoric acid/acetonitrile gradient, 43° C.
PARAMETER: logP (Physical data, Table 1)

O=C1CCCC(O)=C1C(=O)c1ccc(Cl)c(OCn2ccccc2=O)c1Cl = logP = 2.04^a)
COCc1nn(CCOc2c(Cl)ccc(C(=O)C3=C(O)CCCC3=O)c2C)c(=O)n1C = logP = 2.04^a)
CSc1nn(CCOc2c(Cl)ccc(C(=O)C3=C(O)CCCC3=O)c2C)c(=O)n1C = logP = 2.38^a)
CCn1c(OC)nn(CCOc2c(Cl)ccc(C(=O)C3=C(O)CCCC3=O)c2C)c1=O [Example 31] = logP = 2.38^a)
